B1: TRIM35 (parent)
chain: DKELLCCSCQADPRHQGHRVQPVK

Variants of: B1
assay-name: protein stability index of a GFP-peptide fusion (GPS, HEK-293T) (PSI 1-6); higher = more stable;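 note: lentivirally expressed fusions sorted by FACS into six bins by GFP to DsRed ratio, PSI derived from sequencing read proportions per bin multiplied by bin number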
condition-parameters: c terminus: a fixed tail appended
Readings of protein stability index for the listed variants
readout: protein stability index

>  <mutation-code>
L4R

>  <reported-value>
3.7

$$$$
>  <mutation-code>
E3R

>  <reported-value>
2.81

$$$$
>  <mutation-code>
E3M

>  <reported-value>
2.12

$$$$
>  <mutation-code>
R19W

>  <reported-value>
2.78

$$$$
>  <mutation-code>
K24Q

>  <reported-value>
3.77

$$$$
>  <mutation-code>
P13Y

>  <reported-value>
2.79

$$$$
>  <mutation-code>
H15K

>  <reported-value>
3.44

$$$$

Entry source: the supplement of paper PMC10567573
